Test system: T-47D breast
protocol.notes: NCI-60 one-dose screen, 48 h (100 = growth as untreated, 0 = no growth, -100 = all killed)
measurement.parameters: 10 µM unless noted
Protocol: Growth inhibition of the T-47D human tumor cell line is measured as a screen for anti-cancer activity. Cells are grown in 96 well plates and exposed to the test compound for 48 hours. Compounds are tested at a single concentration, which is 10^-5 M for most compounds. The reported endpoint is percent growth (GI% or GIPRCNT), where numbers from 0 - 100% represent growth inhibition, and numbers from -100% - 0 represent cell death. For example, a value of 40 represents 60% growth inhibition. […]
The panel holds about 83,000 compounds, 20% with a hit somewhere; the sample as a whole holds those more often.
Note to self: values exactly at 40% are criterion met. So growth at or above 40% is criterion met, below is criterion not met.

Check out these entries, answers already filled in.
- compound: "CN1CCN(S(=O)(=O)O[C@@H]2C(=O)N(c3cc4c5ccccc5ccc4c4ccccc34)[C@H]2c2ccc(F)cn2)CC1"
  label.class: "criterion met"
- compound: "Cc1cc2ccccc2c[n+]1CC(=O)c1ccc(-c2ccccc2)cc1"
  label.class: "criterion not met"
- compound: "COc1ccc2c(c1)/C(=C1\\S/C(=N/c3nnc(C)s3)NC1=O)C(=O)N2Cc1ccc(Cl)cc1"
  label.class: "criterion met"
- compound: "Cn1c2c(c3ccc(-c4ccn[nH]4)cc3c1=O)C(=O)c1ccccc1-2"
  label.class: "criterion not met"
- compound: "COc1ccc(-c2nnc(N3CCN(C(=O)CN4CCN(c5ccc(OC)cc5)CC4)CC3)nc2-c2ccc(OC)cc2)cc1"
  label.class: "criterion not met"

// inclusive: growth at least 40%? input: CC(=O)Nc1nc2c(c(N)c1C#N)C(c1cccc(Cl)c1)C1=C(CCCC1=O)N2c1sc2c(c1C#N)CCCC2 (centres undefined)
criterion not met

# iterate: Cc1cc(C)cc(Nc2nccc(-c3c(-c4ccc(F)cc4)ncn3C3CCNCC3)n2)c1
criterion not met

# iterate: COc1ccc(C(C)c2cc(OC)c(OC)c(OC)c2)cc1 (centres undefined)
criterion met

# iterate: COc1ccc(NC(=O)Nc2ccc(Nc3nc(C)cc(Nc4ccc(C)cc4)n3)cc2)cc1
criterion not met
